I'd be grateful if you could share measured IC50 for these entries.
Target entity: tPHD2 (PHD2 181-426) with HIF-1α NODD (Homo sapiens, UniProt Q9GZT9)
Construct: catalytic domain of truncated PHD2 (tPHD2, residues 181–426); His6 (N, cleaved yes); made in house; host or cells: E. coli BL21 DE3
Sequence (Q9GZT9 181-426): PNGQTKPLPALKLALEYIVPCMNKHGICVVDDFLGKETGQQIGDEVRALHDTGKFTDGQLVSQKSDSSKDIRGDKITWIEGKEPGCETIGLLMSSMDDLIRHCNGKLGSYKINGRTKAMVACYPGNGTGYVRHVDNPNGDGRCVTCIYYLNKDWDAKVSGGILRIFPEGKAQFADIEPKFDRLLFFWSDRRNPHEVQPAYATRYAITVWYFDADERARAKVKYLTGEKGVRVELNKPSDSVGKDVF
Assay method text: RapidFire-MS PHD2 hydroxylation assay, HIF-1α NODD peptide substrate
Format: biochemical
Cond: tPHD2 181-426, HIF-1α NODD peptide, RapidFire MS, standard error of the mean (n = 3); read-out: PHD2 with HIF1-α NODD IC50
Method: 11–16 were then assayed using mass spectrometry (MS) for inhibition of the catalytic domain of truncated PHD2 (tPHD2, residues 181–426) and (in selected cases) PHD3, employing either human HIF-1α CODD or NODD peptide sequences (Table 1). Supplementary Information RapidFire-MS PHD2 hydroxylation assays Inhibition of PHD2 enzyme activity was assessed by mass spectrometry. […] data were determined from non-linear regression plots using GraphPad prism 6.0. […]
Give a bare numeral; the unit nM is implied.

Lab request: please report IC50 under test system tPHD2 (PHD2 181-426) with HIF-1α NODD (Homo sapiens, UniProt Q9GZT9) for O=C1N(c2ccc(-c3ccccc3)cc2)C(=O)C2(CCN(Cc3ncc[nH]3)CC2)N1c1ncccn1 [Compound 15]
70

Now try Cc1cccnc1CN1CCC2(CC1)C(=O)N(c1ccc(-c3ccccc3)cc1)C(=O)N2c1cc(C(=O)O)ccn1 [Compound 27] .
94

What do you get for COc1cccc(CN2CCC3(CC2)C(=O)N(c2ccc(-c4ccccc4)cc2)C(=O)N3c2ncccn2)n1 [Compound 16] ?
905

Request: COc1ccnc(N2C(=O)N(c3ccc(-c4ccccc4)cc3)C(=O)C23CCN(Cc2ncccc2C)CC3)n1 [Compound 26]
55

What do we get for Cn1ccnc1CN1CCC2(CC1)NC(=O)N(c1ccc(-c3ccccc3)cc1)C2=O [Compound 24] ?
63

====

Target entity: tPHD2 (PHD2 181-426) with HIF-1α CODD (Homo sapiens)
Construct: catalytic domain of truncated PHD2 (tPHD2, residues 181–426); His6 (N, cleaved yes); made in house; host or cells: E. coli BL21 DE3
Assay method text: RapidFire-MS PHD2 hydroxylation assay, HIF-1α CODD peptide substrate
Assay type: biochemical
Cond: tPHD2, HIF-1α CODD substrate
Method: 11–16 were then assayed using mass spectrometry (MS) for inhibition of the catalytic domain of truncated PHD2 (tPHD2, residues 181–426) and (in selected cases) PHD3, employing either human HIF-1α CODD or NODD peptide sequences (Table 1). Supplementary Information RapidFire-MS PHD2 hydroxylation assays Inhibition of PHD2 enzyme activity was assessed by mass spectrometry. […] data were determined from non-linear regression plots using GraphPad prism 6.0. […]

[
  {
    "Smiles notation": "O=C1N(c2ccc(-c3ccccc3)cc2)C(=O)C2(CCN(Cc3cccs3)CC2)N1c1ncccn1",
    "tPHD2 inhibition (in words)": "inactive"
  },
  {
    "Smiles notation": "O=C1N(c2ccc(-c3ccccc3)cc2)C(=O)C2(CCN(Cc3ccccc3O)CC2)N1c1ncccn1",
    "tPHD2 inhibition (in words)": "inactive"
  }
]

====

Target entity: tPHD2 (PHD2 181-426) with HIF-1α CODD (Homo sapiens, UniProt Q9GZT9)
Construct: catalytic domain of truncated PHD2 (tPHD2, residues 181–426); His6 (N, cleaved yes); made in house; host or cells: E. coli BL21 DE3
Sequence (Q9GZT9 181-426): as above
Assay method text: RapidFire-MS PHD2 hydroxylation assay, HIF-1α CODD peptide substrate
Type: biochemical
Cond: tPHD2 181-426, HIF-1α CODD peptide, RapidFire MS, standard error of the mean (n = 3); read-out: PHD2 with HIF1-α CODD IC50
Note to self: use Fulfilled only for IC50 readings below 300 nM; a reading exactly at 300 nM still gets Not fulfilled.

Given the entry O=C1N(c2ccc(-c3ccccc3)cc2)C(=O)C2(CCN(Cc3cccs3)CC2)N1c1ncccn1 , would its reported IC50 be below 300 nM?
Not fulfilled

Same again, this time with Cn1ccnc1CN1CCC2(CC1)NC(=O)N(c1ccc(-c3ccccc3)cc1)C2=O
Fulfilled

Similarly, O=C1N(c2ccc(-c3ccccc3)cc2)C(=O)C2(CCN(Cc3ncc[nH]3)CC2)N1c1ncccn1 ?
Fulfilled

What do you have for Cc1cccnc1CN1CCC2(CC1)C(=O)N(c1ccc(-c3ccccc3)cc1)C(=O)N2c1cc(C(=O)O)ccn1 ?
Not fulfilled

What about COc1cccc(CN2CCC3(CC2)C(=O)N(c2ccc(-c4ccccc4)cc2)C(=O)N3c2ncccn2)n1 ?
Not fulfilled

Also need COc1ccnc(N2C(=O)N(c3ccc(-c4ccccc4)cc3)C(=O)C23CCN(Cc2ncccc2C)CC3)n1 , thanks.
Fulfilled

Also check O=C1N(c2ccc(-c3ccccc3)cc2)C(=O)C2(CCNCC2)N1c1ncccn1
Not fulfilled
